# experimental.target: T1, rat APJ receptor (rat, UniProt Q9JHG3 1-377)
# T1 sequence (looked up): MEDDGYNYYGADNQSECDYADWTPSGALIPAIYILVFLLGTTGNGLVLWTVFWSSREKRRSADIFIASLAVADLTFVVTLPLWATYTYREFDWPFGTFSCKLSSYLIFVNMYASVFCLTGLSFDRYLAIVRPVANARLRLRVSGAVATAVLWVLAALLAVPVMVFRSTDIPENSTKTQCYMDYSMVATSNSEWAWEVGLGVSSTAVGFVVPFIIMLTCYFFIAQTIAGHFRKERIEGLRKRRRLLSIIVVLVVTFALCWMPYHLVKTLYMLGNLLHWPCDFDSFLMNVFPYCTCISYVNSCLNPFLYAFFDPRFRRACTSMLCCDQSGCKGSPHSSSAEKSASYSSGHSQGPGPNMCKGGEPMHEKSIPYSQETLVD
# measurement.description: cell-based or functional assay
Non-standard residues stand in square brackets, D forms with d. No end group written: not given here. Oic = O=C(O)[C@@H]1C[C@@H]2CCCC[C@@H]2N1; Phe(4-Cl) = N[C@@H](Cc1ccc(Cl)cc1)C(=O)O; d1Nal = N[C@H](Cc1cccc2ccccc12)C(=O)O; NMeR = CN[C@@H](CCCNC(=N)N)C(=O)O; hArg = N=C(N)NCCCC[C@H](N)C(=O)O; Cha = N[C@@H](CC1CCCCC1)C(=O)O; Nle = CCCC[C@H](N)C(=O)O; Orn = NCCC[C@H](N)C(=O)O; Aib = CC(C)(N)C(=O)O
Please assign a class to every record based on measured EC50 Rat APJ Receptor, with ranges 0: < 0.3 nM; 1: ≥ 0.3 nM and < 2 nM; 2: ≥ 2 nM

The following binders have reported results that may help.
[
  {
    "binder": "[Orn]F[NMeR][hArg]Q[hArg]P[hArg][Cha]SHKG[Oic][Nle]P[Phe(4-Cl)] [apelin polypeptide SEQ ID NO: 669]",
    "class.assignment": 2
  },
  {
    "binder": "Ac-Q[dR]P[NMeR][Cha]SHKG[Oic][Nle][d1Nal]-OH (SMILES CCCC[C@H](NC(=O)[C@@H]1C[C@@H]2CCCC[C@@H]2N1C(=O)CNC(=O)[C@H](CCCCN)NC(=O)[C@H](Cc1c[nH]cn1)NC(=O)[C@H](CO)NC(=O)[C@H](CC1CCCCC1)NC(=O)[C@H](CCCNC(=N)N)N(C)C(=O)[C@@H]1CCCN1C(=O)[C@@H](CCCNC(=N)N)NC(=O)[C@H](CCC(N)=O)NC(C)=O)C(=O)N[C@H](Cc1cccc2ccccc12)C(=O)O) [apelin polypeptide SEQ ID NO: 54]",
    "class.assignment": 2
  },
  {
    "binder": "[Orn]F[hArg][hArg]Q[hArg][Aib][hArg][Cha]SHKG[Oic][Nle]P[Phe(4-Cl)] [apelin polypeptide SEQ ID NO: 677]",
    "class.assignment": 2
  }
]

# input for lookup
Band for [Orn]F[hArg][hArg]Q[hArg]P[hArg][Cha]SHKG[Oic][Nle][Aib][Phe(4-Cl)] [apelin polypeptide SEQ ID NO: 685] ?
0
